# System: Z-138 cells
# assay.protocol: Z-138 Methylation Assay (In Cell Western for symmetric di-methyl arginine and DNA content)
# Assay type: cell-based
# condition.label: Homo sapiens, Table D-2, read-out: ICW EC50
pEC50: −log10 of the molar value.
observable: pEC50

Some solved entries appear below for comparison.
• O=C(Cn1cnc2ccc(-c3cccc(OCC(O)CN4CCc5ccccc5C4)c3)cc21)N1CCCCC1 (centres unmarked) [Compound D249] = 6.00 to 7.00
• Cn1ccc2ccc(-c3cccc(OCC(O)CN4CCc5ccccc5C4)c3)cc21 (centres unmarked) [Compound D147] = 5.00 to 6.00
• Cn1cnc2ccc(-c3ccnc(NCC(O)CN4CCc5ccccc5C4)c3)nc21 (centres unmarked) [Compound D238] = > 7.00
• Cn1ccc2ccc(-c3cc(NCC(O)CN4CCc5ccccc5C4)ncn3)cc21 (centres unmarked) [Compound D237] = 6.00 to 7.00

Reported pEC50 of O=C(Cn1ccc2cnc(-c3ccnc(NCC(O)CN4CCc5ccccc5C4)c3)nc21)N1CCCCC1 (centres unmarked) [Compound D246] : > 7.00

Record Cn1cnc2cc(-c3cccc(OCC(O)CN4CCc5ccccc5C4)c3)ccc21 (centres unmarked) [Compound D60] . Reported pEC50: 6.00 to 7.00

Briefly, pEC50 measured for Cn1cncc1C(=O)Nc1cccc(OC[C@H](O)CN2CCc3ccccc3C2)c1 [Compound D259] : 6.00 to 7.00

Form: compound = O=C(Nc1cccc(OCC(O)CN2CCc3ccccc3C2)c1)c1cccnn1 (centres unmarked) [Compound D164] ; pEC50 = 5.00 to 6.00

Lab note: measured pEC50 of Cn1ncc2ccc(-c3cc(COCC(O)CN4CCc5ccccc5C4)on3)cc21 (centres unmarked) [Compound D136] was 5.00 to 6.00

So, CC(C)(C)OCc1cccc(-c2cccc(OCC(O)CN3CCc4ccccc4C3)c2)c1 (centres unmarked) [Compound D150] ? Its pEC50 was 5.00 to 6.00

Lab note: measured pEC50 of OC(CNc1cc(-c2ccc3ncn(C4CCNC4)c3c2)ccn1)CN1CCc2ccccc2C1 (centres unmarked) [Compound D240] was 6.00 to 7.00

Record OC(CNc1cccc(-c2cccc3[nH]cnc23)c1)CN1CCc2ccccc2C1 (centres unmarked) [Compound D235] . Reported pEC50: 6.00 to 7.00

get_value(item= N#CCc1cccc(-c2cccc(OCC(O)CN3CCc4ccccc4C3)c2)c1 (centres unmarked) [Compound D111] , readout=pEC50) returns 5.00 to 6.00
